Biological target: UniProt:P14902
Sequence (P14902 whole entry): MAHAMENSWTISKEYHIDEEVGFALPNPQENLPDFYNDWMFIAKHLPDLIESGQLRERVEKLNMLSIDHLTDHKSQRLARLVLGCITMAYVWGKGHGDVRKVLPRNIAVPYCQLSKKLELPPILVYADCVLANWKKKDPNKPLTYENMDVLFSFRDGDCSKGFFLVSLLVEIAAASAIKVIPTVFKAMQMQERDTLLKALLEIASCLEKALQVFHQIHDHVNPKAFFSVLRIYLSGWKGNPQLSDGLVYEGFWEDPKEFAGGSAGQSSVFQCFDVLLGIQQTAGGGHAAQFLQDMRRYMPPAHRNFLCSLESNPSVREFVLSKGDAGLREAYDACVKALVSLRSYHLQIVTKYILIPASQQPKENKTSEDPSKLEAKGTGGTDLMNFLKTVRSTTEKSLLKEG
Experiment: IDO Kynurenine Assay with Human IDO1/HEK293 Cells
Settings: 20 hours incubation, kynurenine detected with Ehrlich reagent, absorbance at 490 nm, read-out: HEK Human IDO-1 IC50
Protocol: Human IDO1/HEK293 cells were seeded at 10,000 cells per 50 uL per well with RPMI/phenol red free media contains 10% FBS in a 384-well black wall clear bottom tissue culture plate (Matrix Technologies LLC) 125 nL of certain concentration of compound was then added to each well using ECHO liquid handling systems. […] The compound treatments were stopped by adding Trichloroacetic Acid (Sigma-Aldrich) to a final concentration at 0.2%. […] The absorbance at 490 nm was measured on Envision plate reader. […]
Observed property: pIC50
# log scale: pIC50 equals minus log10 of the concentration in mol/L

Here is how some compounds turned out for pIC50.
>>> reported_measurement("O=C(Nc1cncnc1)Nc1cc([C@H]2C[C@H]2C(=O)O)ccc1N(CCCC(F)(F)F)C1CCCCC1")
6.10
>>> reported_measurement("Cc1ccc(CC(=O)Nc2cc([C@H]3C[C@H]3C(=O)O)ccc2N(CC(C)C)CC(C)C)cn1")
6.90

Inquiry: Reported pIC50 for `CC(C)CN(CC(C)C)c1ccc([C@H]2C[C@H]2C(=O)O)cc1NC(=O)Nc1cc(C(F)(F)F)no1` : what is it?
Reply text: 8.15

Inquiry: Reported pIC50 for `CC(C)CN(CC(C)C)c1ccc([C@H]2C[C@H]2C(=O)O)cc1NC(=O)Nc1ccccc1Cl` : what is it?
Reply text: 7.01

Inquiry: Reported pIC50 for `Cc1ccc(NC(=O)Nc2cc([C@H]3C[C@H]3C(=O)O)ccc2N(CCCC(F)(F)F)C2CCCCC2)cc1` : what is it?
Reply text: 6.28
